- Tested on: ammonia lateralization threshold
- test: Panel evaluation of the lateralization threshold (LT) of ammonia alone and in combination with a PRM
- Type: in vivo, panellists
- Parameters: unit not given here
- reported.conditions: Table 4; ammonia stimulus combined with PRM stimulus
- Procedure: An ammonia stimulus test range was prepared. […] A stimulus was also prepared for each PRM which was intended to be combined with ammonia stimuli. […] If the rating created any sort of reasonable curve, the equation of the curve was determined and solved for 0 to arrive at the PRM assessment level. […] In the first circumstance, threshold values were then calculated by averaging the last four reversals. […] In the third circumstance, the LT could not be calculated. […]
property: LT of ammonia Panellist 3 Cond II
Respond with the number and no other words.

# annotated cases, reported LT of ammonia Panellist 3 Cond II shown
Form field - read-out: LT of ammonia Panellist 3 Cond II; system: ammonia lateralization threshold; submitted item: CC=CC(=O)C1=C(C)CCCC1(C)C
2.0

Form field - read-out: LT of ammonia Panellist 3 Cond II; system: ammonia lateralization threshold; submitted item: CCCCC[C@H]1CCC[C@H]1O (relative stereo) [Cis-2-pentyl-1-cyclopentanol]
3.5

Form field - read-out: LT of ammonia Panellist 3 Cond II; system: ammonia lateralization threshold; submitted item: C=C(CC(C)CO)C1CC=C(C)C1(C)C (stereo not drawn)
2.0

Form field - read-out: LT of ammonia Panellist 3 Cond II; system: ammonia lateralization threshold; submitted item: CC(C)CCCC(C)CCO (stereo not drawn)
3.5

Next:
Form field - read-out: LT of ammonia Panellist 3 Cond II; system: ammonia lateralization threshold; submitted item: CCOC(=O)C(C)CC (stereo not drawn) [Ethyl 2-methylbutanoate]
11.1

Form field - read-out: LT of ammonia Panellist 3 Cond II; system: ammonia lateralization threshold; submitted item: CCOC(=O)C(=O)C(C)CC (stereo not drawn) [Ethyl 3-methyl-2-oxopentanoate]
0.6

Reference source: patent US20130287721A1
